- experimentalTarget: M3 receptor (Cavia porcellus)
- Construct: from tissue; host or cells: isolated guinea pig ileum
- Sequence (H0W1Z3 1-590): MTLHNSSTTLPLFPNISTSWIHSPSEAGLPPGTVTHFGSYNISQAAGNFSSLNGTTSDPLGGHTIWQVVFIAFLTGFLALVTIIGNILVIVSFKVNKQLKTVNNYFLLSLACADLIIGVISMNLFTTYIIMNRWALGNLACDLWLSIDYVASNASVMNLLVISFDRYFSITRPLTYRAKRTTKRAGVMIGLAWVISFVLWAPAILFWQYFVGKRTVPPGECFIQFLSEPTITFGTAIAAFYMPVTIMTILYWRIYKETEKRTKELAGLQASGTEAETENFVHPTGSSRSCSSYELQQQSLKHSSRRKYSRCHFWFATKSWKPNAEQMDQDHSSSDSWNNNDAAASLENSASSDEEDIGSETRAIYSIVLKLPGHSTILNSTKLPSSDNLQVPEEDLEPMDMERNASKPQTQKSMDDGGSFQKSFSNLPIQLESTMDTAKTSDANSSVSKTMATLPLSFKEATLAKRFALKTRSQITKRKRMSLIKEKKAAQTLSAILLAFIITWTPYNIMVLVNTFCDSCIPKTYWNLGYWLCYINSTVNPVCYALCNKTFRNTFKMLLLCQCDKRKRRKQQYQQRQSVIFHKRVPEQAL
- measurementNotes: Carbachol-induced contraction of the isolated Guinea pig ileum
- conditionDetails: duplicate samples; read-out: IC50 for inhibition of carbachol-induced contraction of the Guinea Pig ileum
metric: IC50 (µM)
Quick reminder: number only, in µM, skip the unit.

Task item: Fill: IC50 (M3 receptor (Cavia porcellus)) for this molecule `N[C@@H]1CC[C@@H](c2ccc(Cl)c(Cl)c2)c2ccccc21`
Reply: 9

###

The following compounds are listed with their measured IC50 values.
- experimentalTarget: hERG channel (Homo sapiens)
- Sequence (Q12809 whole entry): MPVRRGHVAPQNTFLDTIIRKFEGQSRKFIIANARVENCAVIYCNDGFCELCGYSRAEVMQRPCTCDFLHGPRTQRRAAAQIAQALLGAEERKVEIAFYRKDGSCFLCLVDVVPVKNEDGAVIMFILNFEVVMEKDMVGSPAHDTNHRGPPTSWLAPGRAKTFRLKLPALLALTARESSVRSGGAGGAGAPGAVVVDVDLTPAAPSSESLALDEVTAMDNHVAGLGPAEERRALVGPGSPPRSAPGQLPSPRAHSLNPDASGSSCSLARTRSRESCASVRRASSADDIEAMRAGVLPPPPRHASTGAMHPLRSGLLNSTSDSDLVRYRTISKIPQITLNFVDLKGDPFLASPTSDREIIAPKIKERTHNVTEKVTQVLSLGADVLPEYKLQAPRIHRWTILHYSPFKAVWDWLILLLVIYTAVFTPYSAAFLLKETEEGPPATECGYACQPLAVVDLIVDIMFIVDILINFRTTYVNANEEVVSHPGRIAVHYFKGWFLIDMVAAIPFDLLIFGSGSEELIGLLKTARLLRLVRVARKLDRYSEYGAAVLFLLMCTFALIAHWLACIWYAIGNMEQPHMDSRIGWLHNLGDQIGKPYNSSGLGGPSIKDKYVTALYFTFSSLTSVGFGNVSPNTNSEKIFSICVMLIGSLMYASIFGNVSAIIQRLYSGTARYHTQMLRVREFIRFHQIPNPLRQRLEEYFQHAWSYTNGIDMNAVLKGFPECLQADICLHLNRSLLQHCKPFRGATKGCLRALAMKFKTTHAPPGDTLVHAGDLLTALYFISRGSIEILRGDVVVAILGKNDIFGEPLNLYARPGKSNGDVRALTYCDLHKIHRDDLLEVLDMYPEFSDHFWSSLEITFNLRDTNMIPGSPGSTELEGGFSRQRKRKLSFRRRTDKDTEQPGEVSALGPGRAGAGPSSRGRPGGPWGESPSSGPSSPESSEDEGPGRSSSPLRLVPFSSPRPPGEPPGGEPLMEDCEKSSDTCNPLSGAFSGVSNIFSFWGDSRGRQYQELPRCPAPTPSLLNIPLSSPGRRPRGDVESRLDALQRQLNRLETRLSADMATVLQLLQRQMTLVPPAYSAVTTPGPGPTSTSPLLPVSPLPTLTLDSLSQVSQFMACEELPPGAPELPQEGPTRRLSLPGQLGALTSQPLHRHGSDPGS
- measurementNotes: hERG channel current in stably transfected HEK293 cells
Just the number in nM, nothing appended.

compound	experimentalTarget	unit	valueObserved
CN[C@H]1CC[C@@H](c2ccc(Cl)c(Cl)c2)c2ccccc21 [Sertraline, reference compound]	hERG channel (Homo sapiens)	nM	1100

Here's the next entry for you.
Task item: // Input: N[C@@H]1CC[C@@H](c2ccc(Cl)c(Cl)c2)c2ccccc21 [Compound P] . Output its IC50 only.
Reply: 800
